# Measurement Protocol: NCI Yeast Anticancer Drug Screen. Data for the cln2 rad14 strain (AID 165);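 also: 0% = growth equal to vehicle treated cultures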
# Stated Conditions: S. cerevisiae cln2 rad14 strain, at 5.0 µM (retest, dose inferred, filed as 0.5), hits give high values
This is part of a sample that, as a whole, favours compounds with a hit. Of some 79,000 tested, about 15% had one in any assay. The source made the active and inactive calls. Rule as the data show it: active = growth inhibition above about 70%; inactive = the rest.
Item-by-item account of growth inhibition

* Fc1cccc(NC(=S)SCc2ccco2)c1 | -2% (inactive)
* CN(C)CC(CN(C)C)C(=O)C1CCCCC1 | 19% (inactive)
* OC(CC(O)(C(F)(F)Cl)C(F)(F)Cl)c1ccccc1 (configuration not stated) | 35% (inactive)
* CC(C)(C)/C=N/NS(=O)(=O)c1ccccc1 | -50% (inactive)
* O=Cc1ccc2cc(Cl)ccc2n1 | -50% (inactive)

Input: For `C/C=C/c1ccc(OCC(=O)O)c(OC)c1` , what is its reported growth inhibition?
Output: -3% (inactive)

Input: For `CN(C)CCNC(=O)C(c1ccccc1)c1ccccc1` , what is its reported growth inhibition?
Output: -1% (inactive)

----------
# Measurement Protocol: NCI Yeast Anticancer Drug Screen. Data for the sgs1 mgt1 strain (AID 161);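 also: 0% = growth of cultures given vehicle only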
# Stated Conditions: S. cerevisiae sgs1 mgt1 strain, at 5.0 µM (retest, dose inferred, filed as 0.5)
Compounds without any hit were thinned out: in the full panel of roughly 79,000, 15% have a hit. Calls of active or inactive are those of the source. Cut-off read from the data, not from the text of the source: active = growth inhibition above about 70%; inactive = the rest.
Valid outcomes are listed here; reply with one: true (1) for active, false (0) for inactive

Past entries and their recorded results:
- CCc1ccc(/C(C)=N/NC(N)=S)cc1: false (0)
- COc1cc(C2C(C(=O)Nc3ccc(Cl)c(Cl)c3)=C(C)NC(C)=C2C(=O)Nc2ccc(Cl)c(Cl)c2)ccc1O: false (0)
- OC/C(=C\c1ccccc1Br)c1ccccc1Br: false (0)
- O=C(N/N=C/c1cc(Cl)cc(Cl)c1O)c1ccccc1: false (0)
- COc1ccc(/C=C/c2ccnc3ccccc23)cc1OC: false (0)

Input: // return assay outcome for `CN1C(=O)c2cccc3cc([N+](=O)[O-])cc(c23)C1=O`
Output: false (0)

----------
# Measurement Protocol: NCI Yeast Anticancer Drug Screen. Data for the mlh1 rad18 strain (AID 175)
# Stated Conditions: S. cerevisiae mlh1 rad18 strain growth inhibition; at 5.0 µM (retest, dose inferred, filed as 0.5); hits give high values
The panel holds about 79,000 compounds, 15% with a hit somewhere; the sample as a whole holds those more often.
Readout Kind: growth inhibition (%)
Report the figure in % without appending any unit label.

Please review the following examples before continuing.
• COC(=O)c1cc2c(oc1=O)-c1ccccc1N(C=O)C2 = 0
• CCCCC1(C(O)CC)Sc2ccccc2N1C (stereo not drawn) = -12
• Cc1cccc(N2C(=O)c3ccccc3C2(c2ccccc2)N2CCCCC2)c1 (stereo not drawn) = -2
• CC1CCN(CCOC(=O)C(c2ccccc2)C2C=CCCC2)C1C (stereo not drawn) = 54
• CC(=O)O/N=C1/CCC2C3CC=C4CC(OC(C)=O)CCC4(C)C3CCC12C (stereo not drawn) = 34

Input: For CCCCN(CCCC)c1ccc2c(c1)C(O)c1ccccc1-2 (stereo not drawn) , what is its reported growth inhibition?
Output: 15

Input: For Oc1cc2c(cc1C(Nc1ncccn1)c1ccc(F)cc1)OCO2 (stereo not drawn) , what is its reported growth inhibition?
Output: 0

Input: For `C=C(Br)COc1ccc2c(C)cc(=O)oc2c1` , what is its reported growth inhibition?
Output: 49

Input: For `O=C1c2ccc3c4ccccc4n(Cc4ccccc4)c3c2C(=O)N1c1ccccc1` , what is its reported growth inhibition?
Output: 47

Input: For `CCCCCCCCN=C(N)c1ccc(C(=O)OCC2CCCCC2)cc1` , what is its reported growth inhibition?
Output: 100

Input: For `CC1=C(C(=O)Nc2cccc(Cl)c2)C(c2ccccc2F)C(C(=O)Nc2cccc(Cl)c2)=C(C)N1` , what is its reported growth inhibition?
Output: 62

Input: For `NN(c1ccccc1)c1cccc2ccccc12` , what is its reported growth inhibition?
Output: 1

Input: For `O=C(O)c1ccc2c(c1)CCCC2` , what is its reported growth inhibition?
Output: -143

Input: For O=C1C2C3CCC(O3)C2C(=O)N1c1cccc2ccccc12 (stereo not drawn) , what is its reported growth inhibition?
Output: 0

Input: For `Cc1nc2c(cnn2C)cc1CCc1ccccc1` , what is its reported growth inhibition?
Output: 8

Input: For `Oc1ccc2ccccc2c1I` , what is its reported growth inhibition?
Output: 32

Input: For OC(C1CCCC1=N/N=C1/CCCC1C(O)(C(F)(F)Cl)C(F)(F)Cl)(C(F)(F)Cl)C(F)(F)Cl (stereo not drawn) , what is its reported growth inhibition?
Output: -3

Input: For CC(NC(=O)C(NC(=O)C(NC(=O)C(F)(F)F)C(C)C)C(C)C)C(=O)Oc1c(Cl)c(Cl)c(Cl)c(Cl)c1Cl (stereo not drawn) , what is its reported growth inhibition?
Output: 28

Input: For `O=C(NNc1ccccc1)c1cccc([N+](=O)[O-])c1` , what is its reported growth inhibition?
Output: 29

Input: For `O=S(=O)(Nc1ccccc1)c1ccccc1CC(O)(c1ccccc1)c1ccccc1` , what is its reported growth inhibition?
Output: 90

----------
# Measurement Protocol: NCI Yeast Anticancer Drug Screen. Data for the sgs1 mgt1 strain (AID 161);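 also: 0% = growth of cultures given vehicle only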
# Stated Conditions: S. cerevisiae sgs1 mgt1 strain, at 50.0 µM (retest, dose inferred, filed as 5.0)
Compounds without any hit were thinned out: in the full panel of roughly 79,000, 15% have a hit. The source made the active and inactive calls. Rule as the data show it: active = growth inhibition above about 70%; inactive = the rest.
Valid outcomes are listed here; reply with one: true = active, false = inactive

• O=C(CC(c1ccccc1)N1CCCCC1)OC1c2ccccc2-c2ccccc21 (stereo unspecified) = false
• COC(=O)c1nc(NC#N)[nH]c(=O)c1CCCCCc1cnc(NC#N)nc1 = false
• CCCCCCCCCCCCCCC/C([O-])=N/[N+](C)(C)CC(C)O (stereo unspecified) = true
• COC1CC(OC(=O)c2ccccc2)C2OC(c3ccccc3)OCC2O1 (stereo unspecified) = false
• CCN(CC)CCCCSc1ccc([N+](=O)[O-])cc1[N+](=O)[O-] = false

Let us examine a further case.
Input: // return assay outcome for `COC1=CC(=O)C(C#CCOCc2ccccc2)=CC1=O`
Output: true

----------
# Measurement Protocol: NCI Yeast Anticancer Drug Screen. Data for the mlh1 rad18 strain (AID 175)
# Stated Conditions: S. cerevisiae mlh1 rad18 strain growth inhibition; at 5.0 µM (retest, dose inferred, filed as 0.5); hits give high values
This is part of a sample that, as a whole, favours compounds with a hit. Of some 79,000 tested, about 15% had one in any assay.
Item-by-item account of growth inhibition
Report the figure in % without appending any unit label.

Please review the following examples before continuing.
- O=C(O)C(CCc1cccc2ccccc12)c1ccccc1 (configuration not stated): 5
- COc1ccccc1NC(=O)c1ccccc1F: -147
- Nc1ccc(C(=O)N/N=C\c2cccc3ccccc23)cc1: -1
- C[C@]12CC[C@H](O)CC1=CC[C@@H]1C2CC[C@]2(C)C(=O)N(N)C(=O)CC12 (some centres not stated): -11
- COc1cc(NCc2ccc3nc(-c4ccccc4)c(N)nc3c2)cc(OC)c1OC: -16
- CCOc1ccc2c(c1)n([O-])c1ccccc1[n+]2=O: 81

Input: For `CCOc1cc2c(cc1Cc1c(OC)cc(OC)cc1OC)OCO2` , what is its reported growth inhibition?
Output: 7

Input: For N#CSCN1C(=O)C2CC=CCC2C1=O (configuration not stated) , what is its reported growth inhibition?
Output: 11

----------
Item-by-item account of growth inhibition
# Measurement Protocol: NCI Yeast Anticancer Drug Screen. Data for the sgs1 mgt1 strain (AID 161);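 also: 0% = growth of cultures given vehicle only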
# Stated Conditions: S. cerevisiae sgs1 mgt1 strain, at 50.0 µM, hits give high values
# Protocol: Growth inhibition of yeast strains with defined genetic alterations is measured as a screen for potential anti-cancer activity. Selected strains with alterations in DNA damage repair or cell cycle control were exposed to compounds and growth inhibition was measured relative to vehicle treated controls. The strain used in this assay is sgs1 mgt1
About 79,000 compounds went through this panel and 15% of them were active in at least one assay; those are over-represented in the sample as a whole. Active and inactive are the calls of the source. No stated cut-off is given here; in the data, active means growth inhibition above about 70%; inactive means the rest.

Please review the following examples before continuing.
• CCOC(=O)/C(=C\c1cccc([N+](=O)[O-])c1)C(C)=O = 93.2% (active)
• CC(=O)OCc1ccc([N+](=O)[O-])o1 = 64.3% (inactive)

Input: For `OC(CC(CC(O)(C(F)(F)F)C(F)(F)F)=NN=C(CC(O)(C(F)(F)F)C(F)(F)F)CC(O)(C(F)(F)F)C(F)(F)F)(C(F)(F)F)C(F)(F)F` , what is its reported growth inhibition?
Output: 78.5% (active)

Input: For CCC1([N+](=O)[O-])COC(c2ccc3c(c2)OCO3)OC1 (stereo not drawn) , what is its reported growth inhibition?
Output: 11.7% (inactive)

Input: For `O=[N+]([O-])c1ccc(CSSCc2ccc([N+](=O)[O-])cc2)cc1` , what is its reported growth inhibition?
Output: 41.5% (inactive)

Input: For O=C(O)C(CCc1cccc2ccccc12)c1ccccc1 (stereo not drawn) , what is its reported growth inhibition?
Output: 99.5% (active)

Input: For CCOC(=O)C1c2[nH]c3ccccc3c2CCN1C(=O)c1ccc(OC)o1 (stereo not drawn) , what is its reported growth inhibition?
Output: 82% (active)

Input: For `CCCCCCCCCCCCCCC[N+]1(CC)CCCCC1` , what is its reported growth inhibition?
Output: 91.7% (active)
